The entries below are paired with their reported half-life.
- measurement_description: Murine serum stability assay
- Format: in vitro ADME, mouse
- experimental_setup: male, CD-1, mouse, mouse serum; linear peptides, Table 11; read-out: Murine serum stability assay, T1/2
Report as a plain number; the unit min is understood.

// worked examples, half-life included
CC(C)C[C@H](NC(=O)[C@H](C)NC(=O)[C@@H]1CCCN1C(=O)[C@H](CC(=O)O)NC(=O)[C@H](CCCNC(=N)N)NC(=O)[C@H](CC(C)C)NC(=O)[C@@H]1CCCN1C(=O)[C@H](C)NC(=O)[C@H](CC(=O)O)NC(=O)[C@H](Cc1c[nH]c2ccccc12)NC(=O)[C@H](CCCNC(=N)N)NC(=O)[C@@H]1CCCN1C(=O)[C@H](C)N)C(=O)N[C@@H](CCCNC(=N)N)C(=O)N[C@@H](CCC(N)=O)C(=O)N[C@H](C(=O)N[C@@H](CC1CCC1)C(=O)O)C(C)(C)C | 16.9
CC(C)C[C@H](NC(=O)[C@H](C)NC(=O)[C@@H]1CCCN1C(=O)[C@H](CC(=O)O)NC(=O)[C@H](CCCNC(=N)N)NC(=O)[C@H](CC(C)C)NC(=O)[C@@H]1CCCN1C(=O)[C@H](C)NC(=O)[C@H](CC(=O)O)NC(=O)[C@H](Cc1c[nH]c2ccccc12)NC(=O)[C@H](CCCNC(=N)N)NC(=O)[C@@H]1CCCN1C(=O)[C@H](C)N)C(=O)N[C@@H](CCCNC(=N)N)C(=O)N[C@@H](CCC(N)=O)C(=O)N[C@@H](CC1CCC1)C(=O)N[C@@H](CC(C)(C)C)C(=O)O | 10.1

// moving on: another record for half-life
[in] I have this compound here, CC(C)CC[C@H](NC(=O)[C@H](CCC(N)=O)NC(=O)[C@H](CCCNC(=N)N)NC(=O)[C@H](CC(C)C)NC(=O)[C@H](C)NC(=O)[C@@H]1CCCN1C(=O)[C@H](CC(=O)O)NC(=O)[C@H](CCCNC(=N)N)NC(=O)[C@H](CC(C)C)NC(=O)[C@@H]1CCCN1C(=O)[C@H](C)NC(=O)[C@H](CC(=O)O)NC(=O)[C@H](Cc1c[nH]c2ccccc12)NC(=O)[C@H](CCCNC(=N)N)NC(=O)[C@@H]1CCCN1C(=O)[C@H](C)N)C(=O)N[C@@H](CC(C)(C)C)C(=O)O , and I need its recorded half-life.
[out] 12.1
